Origin of values: patent US6479534B1

Below is a list of entries, each paired with its recorded EC50 value.
target: h5-HT2C receptors (Homo sapiens, UniProt P28335); construct: expressed in transfected cells; host or cells: CHO cells; assay: Functional activity, FLIPR calcium assay, CHO cells expressing h5-HT2C; type: cell-based; conditions: FLIPR, Fluo 3-AM, CHO cells; read-out: h5-HT2C EC50
Structures can show the parent of a compound that is named as a salt.
Report as a plain number; the unit nM is understood.

INSERT INTO results (compound, metric, reading_unit, observed_result) VALUES
  ('C[C@H](N)CN1c2cc(Cl)c(F)cc2C2CCCC21 (single isomer, unassigned; isomer i)', 'EC50', 'nM', 737);

Now for a further compound.
Tell us which EC50 value is on record for C[C@H](N)CN1c2cc(Cl)ccc2[C@@H]2CCC[C@@H]21 [Example 2, hydrochloride]
585

###

pEC50 for assorted compounds
Target: h5-HT2C receptors (Homo sapiens, UniProt P28335)
Construct: expressed in transfected cells; host or cells: CHO cells
Sequence (P28335 33-458): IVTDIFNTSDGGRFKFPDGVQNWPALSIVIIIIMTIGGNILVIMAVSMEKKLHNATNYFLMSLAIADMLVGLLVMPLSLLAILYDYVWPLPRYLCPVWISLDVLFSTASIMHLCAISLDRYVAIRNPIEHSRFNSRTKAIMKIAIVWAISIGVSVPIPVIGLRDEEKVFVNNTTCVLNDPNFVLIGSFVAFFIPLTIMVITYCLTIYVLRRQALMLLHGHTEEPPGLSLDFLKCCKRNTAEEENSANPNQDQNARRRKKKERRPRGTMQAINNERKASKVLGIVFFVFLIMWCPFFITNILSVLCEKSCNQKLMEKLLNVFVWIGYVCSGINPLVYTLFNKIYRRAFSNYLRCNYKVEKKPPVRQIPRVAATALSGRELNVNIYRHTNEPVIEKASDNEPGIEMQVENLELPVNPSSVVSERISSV
Experiment: Functional activity, FLIPR calcium assay, CHO cells expressing h5-HT2C
Type: cell-based
Please treat pEC50 as minus the base-10 logarithm of the molar concentration.

INSERT INTO measurements (compound, observed_result) VALUES
  ('COc1c(F)ccc2c1C1CCCC1N2CC(C)N (mixture of isomers) [Example 20]', 6.33);

Turning to the following compound.
Name the recorded pEC50 of the item COc1cc2c(cc1F)C1CCCC1N2C[C@H](C)N (single isomer, unassigned; isomer i) [Example 19] in your answer.
6.41

###

Quick reference: h5-HT2A Relative Efficacy of the listed items.
biological target: h5-HT2A receptors (Homo sapiens, UniProt P28223); construct: expressed in transfected cells; host or cells: CHO cells; assay: Functional activity, FLIPR calcium assay, CHO cells expressing h5-HT2A; assay type: cell-based; details: maximum fluorescent signal relative to 10 μM 5-HT (defined as 100%)
Sequence (P28223 whole entry): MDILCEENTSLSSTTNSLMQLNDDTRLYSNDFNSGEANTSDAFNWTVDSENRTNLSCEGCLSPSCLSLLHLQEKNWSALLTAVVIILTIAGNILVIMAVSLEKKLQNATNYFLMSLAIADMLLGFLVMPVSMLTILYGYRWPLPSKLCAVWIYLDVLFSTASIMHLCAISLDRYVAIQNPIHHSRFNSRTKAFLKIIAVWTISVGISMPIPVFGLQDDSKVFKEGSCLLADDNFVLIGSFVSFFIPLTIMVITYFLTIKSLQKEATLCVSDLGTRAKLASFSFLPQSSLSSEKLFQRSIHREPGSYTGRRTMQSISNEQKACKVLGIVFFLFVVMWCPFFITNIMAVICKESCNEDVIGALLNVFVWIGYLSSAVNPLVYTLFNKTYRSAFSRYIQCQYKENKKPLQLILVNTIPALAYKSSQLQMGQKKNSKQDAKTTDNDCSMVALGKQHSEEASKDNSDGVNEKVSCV
Structures can show the parent of a compound that is named as a salt.

Solved entries (count: 3):
INSERT INTO measurements (compound, observed_result) VALUES
  ('C[C@H](N)CN1c2cc(Cl)c(F)cc2C2CCCC21 (single isomer, unassigned; isomer i)', '20%'),
  ('C[C@H](N)CN1c2cc(Cl)ccc2[C@@H]2CCC[C@@H]21 [Example 2, hydrochloride]', '7%'),
  ('COc1cc2c(cc1F)C1CCCC1N2C[C@H](C)N (single isomer, unassigned; isomer i)', '0%');

Note h5-HT2A Relative Efficacy for the compound shown: COc1c(F)ccc2c1C1CCCC1N2CC(C)N (mixture of isomers)
17%
